# Tested on: MOLT-4 leukemia
# protocolDescription: NCI tumour cell line growth inhibition, 48 h
Measured GI50, listed per entry.
readoutKind: GI50

{"columns": ["compound", "targetUnderTest", "value"],
 "data": [
  ["CC#C[C@]1(O)CC[C@H]2[C@@H]3CCC4=CC(=O)CCC4=C3[C@@H](c3ccc4c(c3)OCO4)C[C@@]21C", "MOLT-4 leukemia", "49.5 µM"],
  ["C=CCOc1cccc(/C=C2\\SC(=Nc3ccc(O)cc3)NC2=O)c1", "MOLT-4 leukemia", "0.523 µM"],
  ["Nc1ccccc1C#C/C=C\\C#Cc1cccs1", "MOLT-4 leukemia", "2.49 µM"],
  ["C1C[OH+]CC[OH+]CCNCC[OH+]CC[OH+]CCN1.N.[Cl-].[Pt+4]", "MOLT-4 leukemia", "3.89 µM"],
  ["O=C1c2cccnc2C(=O)c2nc3cc(N4CCN(C5CC5)CC4)ccc3nc21", "MOLT-4 leukemia", "2.4 µM"],
  ["COc1ccc(/C(C#N)=C/c2ccccc2OC)cc1", "MOLT-4 leukemia", "5.49 µM"],
  ["O=C(O)/C=C\\C(=O)N1C/C(=C\\c2ccccc2Cl)C(=O)/C(=C/c2ccccc2Cl)C1", "MOLT-4 leukemia", "3.06 µM"],
  ["N#Cc1c(N2CCCC2)[nH]c(=O)c(C(c2c(Cl)cccc2Cl)c2c(O)c(C#N)c(N3CCCC3)[nH]c2=O)c1O", "MOLT-4 leukemia", "> 100 µM"],
  ["CCOC(=O)c1cc(NS(=O)(=O)c2ccccc2)cc(C(=O)OCC)c1", "MOLT-4 leukemia", "> 100 µM"],
  ["COC(C(=O)[O][Ge]([CH3])([CH3])[CH3])c1ccccc1 (configuration not stated)", "MOLT-4 leukemia", "> 100 µM"],
  ["Nc1nc2c(c3ncncc13)C(c1cccc(C(F)(F)F)c1)Cc1ncncc1-2 (configuration not stated)", "MOLT-4 leukemia", "4.78 µM"],
  ["Cn1cc(-c2ccc3occ(-c4cccc(-c5ccncc5)c4)c3n2)cn1", "MOLT-4 leukemia", "0.582 µM"]
]}
